target entity: ZFP SBS#518 (synthetic, UniProt P08047)
Sequence (P08047 other isoform, or with tags, fused parts or gaps): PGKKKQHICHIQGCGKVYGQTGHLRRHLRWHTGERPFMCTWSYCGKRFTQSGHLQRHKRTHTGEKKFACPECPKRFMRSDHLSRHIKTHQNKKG
measurement description: EMSA
protocol conditions: tags: MBP fusion
recorded endpoint: Kd
Quote the value and follow it with the unit of measurement.

[ask] Which Kd is listed for GGGGGAGGAG (dsDNA) DNA 1: GGGGGAGGAG DNA 2: CTCCTCCCCC ?
[reply] 30 nM
